The reader will find reported protein stability index values listed item by item below.
B1: KRT71 (parent)
chain: ELRNVQDVVEDYKKRYEEEINKRT

Variants of: B1
procedure.text: protein stability index of a GFP-peptide fusion (GPS, HEK-293T) (PSI 1-6); higher = more stable;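 note: lentivirally expressed fusions sorted by FACS into six bins by GFP to DsRed ratio, PSI derived from sequencing read proportions per bin multiplied by bin number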
conditions.used: c terminus: a fixed tail appended

chain.sequence: ELRNVQDVVEDYKKRYEEEINYRT [K22Y]
protein stability index: 3.43
//
chain.sequence: ELRNVQDVVEDYKLRYEEEINKRT [K14L]
protein stability index: 2.97
//
chain.sequence: ELRNVQDVVEDYKKRYDEEINKRT [E17D]
protein stability index: 3.23
//
chain.sequence: ELRNVQDVVEDYKKRYFEEINKRT [E17F]
protein stability index: 3.93
//
chain.sequence: ELRNVQDVVEDYKKMYEEEINKRT [R15M]
protein stability index: 4.38
//
chain.sequence: ELRNVQDIVEDYKKRYEEEINKRT [V8I]
protein stability index: 3.45
//
chain.sequence: ELRNVQDVVEDYKKRYELEINKRT [E18L]
protein stability index: 2.91
//
chain.sequence: ELRNVQDVVEDYPKRYEEEINKRT [K13P]
protein stability index: 2.97
//
chain.sequence: ELRNVQDVVEDYKKRYEEYINKRT [E19Y]
protein stability index: 2.88
//
chain.sequence: ELRNVQDVVEDYKKRCEEEINKRT [Y16C]
protein stability index: 3.51
//
chain.sequence: ELRNVQDVVEDYKKRYEEEQNKRT [I20Q]
protein stability index: 3.74
//
chain.sequence: ELRNVQDVVETYKKRYEEEINKRT [D11T]
protein stability index: 3.63
//
chain.sequence: ELMNVQDVVEDYKKRYEEEINKRT [R3M]
protein stability index: 4.14
//
chain.sequence: ELRNVQDVVEDYKKRYEAEINKRT [E18A]
protein stability index: 3.54
//
chain.sequence: ELRNVQDVHEDYKKRYEEEINKRT [V9H]
protein stability index: 4.4
//
chain.sequence: ELRNVQDVVEDYKKRYEEEINKNT [R23N]
protein stability index: 4.11
//
chain.sequence: ELRNVQDVVEDYKKRFEEEINKRT [Y16F]
protein stability index: 2.96
//
chain.sequence: ELRNVQDVVEKYKKRYEEEINKRT [D11K]
protein stability index: 2.82
